Taken from PubChem BioAssay AID504333.

Tested On: Bromodomain adjacent to zinc finger domain protein 2B (Homo sapiens)
Test Name: qHTS Assay for Inhibitors of BAZ2B; also: nearly all actives have a fitted effect of over 60% in size
Run Conditions: AlphaScreen BAZ2B-H3K14Ac peptide displacement; series mostly up to 114 µM
The campaign covered roughly 360,000 compounds. About 16,000 (4.4%) were called active. About 9% were inconclusive and are not listed. Calls follow the shape of the dose curve; as a rule, active = well fitted inhibition curve with a large enough effect; inconclusive = small, poorly fitted or top-dose-only effect; inactive = no such curve, though single readings can be large or run the other way. This is one part of a sample in which actives are shown more often than they occur.
Possible outcomes: label 1 = active, label 0 = inactive

Mol | Assigned Class
CN(C)c1ccc(N/C=C/C(=O)C(F)(F)F)cc1 | label 1
O=C(Nc1ccc(S(=O)(=O)N2CCC(c3nc4ccccc4s3)CC2)cc1)c1ccccc1F | label 0
COc1ccccc1-c1noc(-c2ccc(NCc3ccccc3)c([N+](=O)[O-])c2)n1 | label 0
Cc1cnc(NC(=O)C2CCCC2)s1 | label 0
COc1ccc(CNC(=O)Cc2ccc(-c3ccccc3)cc2)cc1OC | label 0
COC(=O)c1cc(NC(=O)c2cnc(SC)nc2-c2ccccc2)cc(C(=O)OC)c1 | label 0
Cc1cc(C(=O)Nc2nnc(C3CC3)s2)c(C)s1 | label 0
COC(=O)c1ccc(-c2c(-c3ccccc3)ncc3cc(OC)c(OC)cc23)cc1 | label 1
COc1ccc(-c2nc(S(=O)(=O)c3ccccc3)c(N3CCCCC3)o2)cc1 | label 0
O=C(Nc1nnc(C2CC2)s1)c1ccccn1 | label 1
CCc1c(C)nc2cc(-c3cccs3)[nH]n2c1=O | label 0
